# System: ABUTH
# method: Post-emergence herbicidal effect, greenhouse pot test
# Format: in vivo, Abutilon theophrasti
# test_context: 320 g/ha, visual rating about 3 weeks after treatment
Recorded Post-emergence effect against ABUTH values for a group of molecules are listed next.
Provide the reading as a plain figure in %.

# molecule, experimental_target, reported_endpoint, unit_name, value_reported
records = [
    ("COC(=O)CCOC(=O)C(OC)Oc1nn(-c2ccccc2F)c(-c2ccc(F)nc2)c1Br (single isomer, unassigned) [Example I-13]", "ABUTH", "Post-emergence effect against ABUTH", "%", 80),
    ("COC(=O)C(OC)Oc1nn(-c2cccc(C)c2F)c(-c2ccc(F)nc2)c1Br (centres unmarked) [Example I-114]", "ABUTH", "Post-emergence effect against ABUTH", "%", 90),
    ("CCOC(Oc1nn(-c2ccccc2F)c(-c2ccc(F)nc2)c1Br)C(=O)OCCC(=O)OC (single isomer, unassigned) [Example I-64]", "ABUTH", "Post-emergence effect against ABUTH", "%", 80),
]

Endpoint output: Post-emergence effect against ABUTH of COC(=O)C(OC)Oc1nn(-c2ncccc2F)c(-c2cncc(F)c2)c1C1CC1 (centres unmarked) [Example I-86] . Value?
80

Endpoint output: Post-emergence effect against ABUTH of COC(Oc1nn(-c2ncccc2F)c(-c2cncc(F)c2)c1C1CC1)C(=O)O (centres unmarked) [Example I-84] . Value?
80

Endpoint output: Post-emergence effect against ABUTH of CCOC(=O)C(OC)Oc1nn(-c2cccc(C)c2F)c(-c2ccc(F)nc2)c1Br (centres unmarked) [Example I-94] . Value?
90

Endpoint output: Post-emergence effect against ABUTH of COC(=O)CCOC(=O)C(OC)Oc1nn(-c2ccccc2F)c(-c2ccc(F)nc2)c1C1CC1 (centres unmarked) [Example I-61] . Value?
80

Endpoint output: Post-emergence effect against ABUTH of COC(=O)CCOC(=O)C(OC)Oc1nn(-c2ncccc2F)c(-c2cncc(F)c2)c1C1CC1 (centres unmarked) [Example I-82] . Value?
90
